biological target: human F508del-CFTR (Homo sapiens, UniProt P13569, DEL508-508); test: F508del-CFTR cell surface expression (corrector activity), DiscoveRx ß-galactosidase complementation chemiluminescence assay in recombinant U2OS cell line; details: U2OS, in relation to the Emax of the corrector lumacaftor (=100%); U2OS cell line, 16h compound incubation; arithmetic mean values
Sequence (P13569 with tags, fused parts or gaps DEL508-508): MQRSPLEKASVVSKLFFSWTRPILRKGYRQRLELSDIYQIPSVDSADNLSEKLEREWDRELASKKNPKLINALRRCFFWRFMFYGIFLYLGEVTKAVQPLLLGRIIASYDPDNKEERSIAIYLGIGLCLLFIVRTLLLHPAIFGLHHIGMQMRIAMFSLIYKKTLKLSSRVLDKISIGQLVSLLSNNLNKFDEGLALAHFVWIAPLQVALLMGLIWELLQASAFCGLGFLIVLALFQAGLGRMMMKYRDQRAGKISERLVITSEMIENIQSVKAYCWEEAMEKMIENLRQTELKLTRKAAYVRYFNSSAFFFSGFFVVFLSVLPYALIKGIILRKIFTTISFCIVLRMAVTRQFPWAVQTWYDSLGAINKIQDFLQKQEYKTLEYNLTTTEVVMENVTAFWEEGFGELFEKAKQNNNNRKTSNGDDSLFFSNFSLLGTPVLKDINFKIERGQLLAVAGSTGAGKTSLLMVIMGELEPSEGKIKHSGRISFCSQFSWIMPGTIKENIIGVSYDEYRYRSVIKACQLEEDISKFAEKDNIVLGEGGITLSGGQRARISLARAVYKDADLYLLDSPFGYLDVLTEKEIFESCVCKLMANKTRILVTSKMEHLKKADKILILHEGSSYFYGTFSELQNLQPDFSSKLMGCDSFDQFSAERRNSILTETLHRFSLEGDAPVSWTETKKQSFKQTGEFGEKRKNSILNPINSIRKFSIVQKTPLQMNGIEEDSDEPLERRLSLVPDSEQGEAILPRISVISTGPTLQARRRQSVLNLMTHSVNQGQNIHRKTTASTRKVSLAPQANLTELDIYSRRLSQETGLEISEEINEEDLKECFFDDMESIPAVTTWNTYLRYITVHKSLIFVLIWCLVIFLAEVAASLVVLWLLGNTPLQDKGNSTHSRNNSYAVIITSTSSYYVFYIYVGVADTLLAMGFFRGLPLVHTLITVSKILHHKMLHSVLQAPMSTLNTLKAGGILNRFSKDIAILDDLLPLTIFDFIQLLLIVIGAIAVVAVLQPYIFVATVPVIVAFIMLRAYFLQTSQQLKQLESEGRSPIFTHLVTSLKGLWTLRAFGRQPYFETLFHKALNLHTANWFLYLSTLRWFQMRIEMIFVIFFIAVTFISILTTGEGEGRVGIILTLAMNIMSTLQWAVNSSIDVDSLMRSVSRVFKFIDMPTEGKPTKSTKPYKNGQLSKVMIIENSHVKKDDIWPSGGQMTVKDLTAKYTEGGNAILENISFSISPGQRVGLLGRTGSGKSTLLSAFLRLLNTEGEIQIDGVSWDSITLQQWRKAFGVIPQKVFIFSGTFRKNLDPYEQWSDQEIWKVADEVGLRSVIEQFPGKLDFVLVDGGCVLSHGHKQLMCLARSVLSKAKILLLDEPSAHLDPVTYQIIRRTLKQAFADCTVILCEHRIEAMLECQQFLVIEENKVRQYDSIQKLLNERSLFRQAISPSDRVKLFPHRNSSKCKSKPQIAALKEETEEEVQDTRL
Below: a set of entries, each annotated with reported Emax.
quantity name: Emax (%)

* CC(C)C[C@H]1C(=O)N2CCCC[C@@H]2C(=O)N[C@H](Cc2ccccc2)COc2cnc3ccccc3c2C(=O)N[C@H](C(=O)NCCc2cc(C3CC3)on2)CC(=O)N1C | 351
* COc1cccc(CCNC(=O)[C@@H]2CC(=O)N(C)[C@@H](CC(C)C)C(=O)N3CCN(C4CCC4)C[C@H]3C(=O)N[C@H](Cc3ccccc3)COc3cnc4ccccc4c3C(=O)N2)c1 | 188
* COc1cccc(CCNC(=O)[C@@H]2CC(=O)N(C)[C@@H](CC(C)C)C(=O)N(C)CC(=O)N[C@H](Cc3ccccc3)COc3cccc(F)c3C(=O)N2)c1 | 134
* COc1cccc2c1C(=O)N[C@H](C(=O)NCCc1ccc(-n3cccn3)cc1)CC(=O)N(C)[C@@H](CC(C)C)C(=O)N(CCC1CCCCC1)CC(=O)N[C@H](Cc1ccccc1)CO2 | 135
* CC(C)C[C@H]1C(=O)N2CCCC[C@@H]2C(=O)N[C@H](Cc2ccccc2)COc2ccc3ncn(C)c3c2C(=O)N[C@H](C(=O)NCCc2ccc(-n3nccn3)cc2)CC(=O)N1C | 111
* COCCCNC(=O)[C@@H]1CC(=O)N(C)[C@@H](CC(C)C)C(=O)N(CCC2CCCCC2)CC(=O)N[C@H](Cc2ccccc2)COc2cccc(OC)c2C(=O)N1 | 108
* COc1cc2c(cc1OC)C(=O)N[C@H](C(=O)NCCc1ccc3c(c1)OCCN3C)CC(=O)N(C)[C@@H](CC(C)C)C(=O)N(C)CC(=O)N[C@H](Cc1ccccc1)CO2 | 210
* Cc1cccc(CCNC(=O)[C@@H]2CC(=O)N(C)[C@@H](CC(C)C)C(=O)N(C)C3(CC3)C(=O)N[C@H](Cc3ccccc3)COc3cnc4ccccc4c3C(=O)N2)c1 | 200
* COc1cccc2c1C(=O)N[C@H](C(=O)NCCc1ccc3c(c1)CCCO3)CC(=O)N(C)[C@@H](CC(C)C)C(=O)N(CCC1CCCCC1)CC(=O)N[C@H](Cc1ccccc1)CO2 (racemic) | 132
* COc1nccc2c1C(=O)N[C@H](C(=O)NCCc1cccc(C)c1)CC(=O)N(C)[C@@H](CC(C)C)C(=O)N1CCCC[C@@H]1C(=O)N[C@H](Cc1ccccc1)CO2 | 209

* * *

target: human F508del-CFTR (Homo sapiens, UniProt P13569, DEL508-508); assay: F508del-CFTR cell surface expression (corrector activity), DiscoveRx ß-galactosidase complementation chemiluminescence assay in recombinant U2OS cell line; conditions: U2OS, in relation to the Emax of the corrector lumacaftor (=100%); U2OS cell line, 16h compound incubation; arithmetic mean values;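 also: U2OS cells co-expressing ProLink-tagged F508del-CFTR and a membrane-anchored enzyme acceptor, where more surface CFTR restores β-galactosidase activity measured by chemiluminescence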
quantity name: Emax (%)

• COc1cccc(CCNC(=O)[C@@H]2CC(=O)N(C)[C@@H](CC(C)C)C(=O)N3CCN(C(C)C)C[C@@H]3C(=O)N[C@H](Cc3ccccc3)COc3ccc4ncn(C)c4c3C(=O)N2)c1 [Example 353] = 177
• Cc1ccc2c(c1)C(=O)N[C@H](C(=O)NCCc1ccc3c(c1)OCO3)CC(=O)N(C)[C@@H](CC(C)C)C(=O)N(C)CC(=O)N[C@H](Cc1ccccc1)CO2 [Example 229] = 117
• COc1cccc(CCNC(=O)[C@@H]2CC(=O)N(C)[C@@H](CC(C)C)C(=O)N3CCCC[C@H]3C(=O)N[C@H](Cc3ccccc3)COc3ccc4ncoc4c3C(=O)N2)c1 [Example 342] = 128
• COc1cccc(CCNC(=O)[C@@H]2CC(=O)N(C)[C@@H](CC(C)C)C(=O)N3CCN(C4CC4)C[C@@H]3C(=O)N[C@H](Cc3ccccc3)COc3ccc4ccccc4c3C(=O)N2)c1 [Example 356] = 353
• COc1cc(CCNC(=O)[C@@H]2CC(=O)N(C)[C@@H](CC(C)C)C(=O)N3CCCC[C@@H]3C(=O)N[C@H](Cc3ccccc3)COc3cnc4ccccc4c3C(=O)N2)ccc1F [Example 91] = 210
